- System: U2OS
- assay-protocol: Multiplex assay against U2OS
- Type: toxicity, cell-based
- study-conditions: human, 24 h, 1 µM, compound concentration 1 uM, replicate 1
Criterion: Population Hoechst High Intensity Objects (%) strictly under 6%. Met: 1. Not met: 0.

Examples from the recorded data:
INSERT INTO assay_data (compound, assigned_class) VALUES
  ('CN1CCN(CCOc2cc(OC3CCOCC3)c3c(Nc4c(Cl)ccc5c4OCO5)ncnc3c2)CC1 [SARACATINIB]', 1),
  ('CC[C@H](C)C(=O)O[C@H]1C[C@@H](C)C=C2C=C[C@H](C)[C@H](CC[C@@H]3C[C@@H](O)CC(=O)O3)[C@H]21 [LOVASTATIN]', 0),
  ('OC1(c2ccc(Cl)cc2)CCN(Cc2c[nH]c3ccccc23)CC1', 1),
  ('C[C@@H](NCCCc1cccc(C(F)(F)F)c1)c1cccc2ccccc12.Cl [CINACALCET HYDROCHLORIDE]', 1),
  ('CC(C)(O)CNc1ncc(-c2ccnc(Nc3ccnc(Cl)c3)n2)c(CC2CC2)n1', 1);

Exam item: Could you please tell me whether Population Hoechst High Intensity Objects (%) recorded for COc1cccc([C@@H](C)NCCCc2ccccc2Cl)c1.Cl [TECALCET HYDROCHLORIDE] is less than 6%?
Marked response: 0

Exam item: Could you please tell me whether Population Hoechst High Intensity Objects (%) recorded for C=CC(=O)Nc1cc2c(Nc3ccc(F)c(Cl)c3)ncnc2cc1OCCCN1CCOCC1.Cl.Cl [CANERTINIB DIHYDROCHLORIDE] is less than 6%?
Marked response: 0

Exam item: Could you please tell me whether Population Hoechst High Intensity Objects (%) recorded for CNc1nc(NCc2ccc(NS(C)(=O)=O)cc2Cl)cc(-c2ccccn2)n1 is less than 6%?
Marked response: 0

====

Would you kindly list Total Cell Count for each of these compounds?
- Tested on: Fibroblast
- assay-protocol: Multiplex assay against human fibroblast
- Type: toxicity, cell-based
- study-conditions: 48 h, 10 µM, compound concentration 10 uM, replicate 2
Answers are plain numbers.

Record excerpt, results attached:
INSERT INTO measurements (compound, target_under_test, measured_endpoint, measured_number) VALUES
  ('c1cn2cc(-c3ccc4cn[nH]c4c3)nc(Nc3ccc(N4CCOCC4)cc3)c2n1 [ENTOSPLETINIB]', 'Fibroblast', 'Total Cell Count', 1794),
  ('Cc1csc2c(N[C@@H](C)CN3CCN(S(=O)(=O)c4ccc(Cl)c(Cl)c4)CC3)ncnc12', 'Fibroblast', 'Total Cell Count', 120);

Let us examine a further case.
Entry under test: C=CC(=O)Nc1ccc2ncnc(Nc3ccc(OCc4cccc(F)c4)c(Cl)c3)c2c1.Cc1ccc(S(=O)(=O)O)cc1 . Its Total Cell Count was 86

====

- Tested on: U2OS
- assay-protocol: Multiplex assay against U2OS
- Assay type: toxicity, cell-based
- study-conditions: human, 24 h, 1 µM, compound concentration 1 uM, replicate 1
Values of Population Normal (%) greater than or equal to 90% map to Y; values below map to N.

Examples from the recorded data:
INSERT INTO results (compound, assigned_class) VALUES
  ('C=CC(=O)Nc1cc2c(Nc3ccc(F)c(Cl)c3)ncnc2cc1OCCCN1CCOCC1.Cl.Cl [CANERTINIB DIHYDROCHLORIDE]', 'N'),
  ('Cc1nc(Nc2n[nH]c3c2CN(C(=O)N[C@H](CN(C)C)c2ccccc2)C3(C)C)c2sccc2n1', 'Y');

Exam item: Please check the record CN1CCC[C@@H]1CCO[C@](C)(c1ccccc1)c1ccc(Cl)cc1.O=C(O)/C=C/C(=O)O [CLEMASTINE FUMARATE] and state if its Population Normal (%) is at or above 90%.
Marked response: Y

Exam item: Please check the record CN1CCCC(n2nc(Cc3ccc(Cl)cc3)c3ccccc3c2=O)CC1.Cl (configuration not stated) [AZELASTINE HYDROCHLORIDE] and state if its Population Normal (%) is at or above 90%.
Marked response: Y

Exam item: Please check the record CN(C)CC#Cc1ccc(OCCCc2sc(N3CCc4cccc(C(=O)Nc5nc6ccccc6s5)c4C3)nc2C(=O)O)c(F)c1 and state if its Population Normal (%) is at or above 90%.
Marked response: Y

Exam item: Please check the record COc1cccc([C@@H](C)NCCCc2ccccc2Cl)c1.Cl [TECALCET HYDROCHLORIDE] and state if its Population Normal (%) is at or above 90%.
Marked response: N

Exam item: Please check the record C[C@@]1(C(=O)Nc2ccc(F)nc2)CCCN1c1nc(Nc2cc(C3CC3)n[nH]2)c2cccn2n1 and state if its Population Normal (%) is at or above 90%.
Marked response: Y

====

- Tested on: HEK-293T
- assay-protocol: Multiplex assay against HEK293T
- Type: toxicity, cell-based
- study-conditions: human, 24 h, 10 µM, compound concentration 10 uM, replicate 2
Would you kindly list Population Fragmented Nuclei (%) for each of these molecules?
Returns: string containing the numeric result and its unit.

Record excerpt, results attached:
INSERT INTO results (molecule, result) VALUES
  ('Cc1csc2c(N[C@@H](C)CN3CCN(S(=O)(=O)c4ccc(Cl)c(Cl)c4)CC3)ncnc12', '5%'),
  ('COc1cccc([C@@H](C)NCCCc2ccccc2Cl)c1.Cl [TECALCET HYDROCHLORIDE]', '4%'),
  ('C[C@@H](NCCCc1cccc(C(F)(F)F)c1)c1cccc2ccccc12.Cl [CINACALCET HYDROCHLORIDE]', '4%'),
  ('Cc1nc(-c2cn3c(n2)-c2ccc(-c4cnn(C(C)(C)C(N)=O)c4)cc2OCC3)n(C(C)C)n1 [TASELISIB]', '24%'),
  ('C=CC(=O)Nc1cc2c(Nc3ccc(F)c(Cl)c3)ncnc2cc1OCCCN1CCOCC1.Cl.Cl [CANERTINIB DIHYDROCHLORIDE]', '24%'),
  ('COc1cc2nccc(Oc3ccc(NC(=O)Nc4cc(C)on4)c(Cl)c3)c2cc1OC.O', '2%');

Parameters: items (list). Returns: Population Fragmented Nuclei (%) for each item.
1. Cc1nc(-c2ccc(-c3ccc(C(=O)N4CCc5cc6c(cc54)C4(CCN(C)CC4)CO6)cc3)c(C)c2)no1 [SB-224289]
2. CNc1nc(NCc2ccc(NS(C)(=O)=O)cc2Cl)cc(-c2ccccn2)n1
3. Cc1nc(Nc2n[nH]c3c2CN(C(=O)N[C@H](CN(C)C)c2ccccc2)C3(C)C)c2sccc2n1 [PF-03758309]

Marked response:
["5%", "3%", "4%"]

====

- System: HEK-293T
- assay-protocol: Multiplex assay against HEK293T
- Assay type: toxicity, cell-based
- study-conditions: human, 48 h, 1 µM, compound concentration 1 uM, replicate 1
measured-endpoint: Population Fragmented Nuclei (%)
One number for each entry, in %.

Record excerpt, results attached:
INSERT INTO assay_data (compound, measured_number) VALUES
  ('CC(C)(O)CNc1ncc(-c2ccnc(Nc3ccnc(Cl)c3)n2)c(CC2CC2)n1', 22),
  ('Cc1cc(C)cc(-c2cnc3cc(Cl)c(-c4cccc(O)c4)cc3c2OCCCN)c1', 17),
  ('CN1CCC[C@@H]1CCO[C@](C)(c1ccccc1)c1ccc(Cl)cc1.O=C(O)/C=C/C(=O)O [CLEMASTINE FUMARATE]', 21),
  ('CC(C)NCC(O)COc1ccc(CCOCC2CC2)cc1.Cl (stereo not given) [BETAXOLOL HYDROCHLORIDE]', 8),
  ('CN1CCCC(n2nc(Cc3ccc(Cl)cc3)c3ccccc3c2=O)CC1.Cl (stereo not given) [AZELASTINE HYDROCHLORIDE]', 14);

Parameters: items (list). Returns: Population Fragmented Nuclei (%) for each item.
1. C=CC(=O)Nc1cccc(C(=O)Nc2ccc(Nc3cc(-c4[nH]c(SC)nc4C)ccn3)cc2)c1
2. CN(C)C(=O)N[C@H]1CC[C@H](CCN2CCN(c3cccc(Cl)c3Cl)CC2)CC1.Cl [CARIPRAZINE HYDROCHLORIDE]
3. CN(C)C(=O)/C(C#N)=C/c1ccc(-c2nc3cnc4[nH]ccc4c3n2C2CCCCC2)o1
4. Cc1[nH]c(/C=C2\C(=O)Nc3ccc(S(=O)(=O)N(C)c4cccc(Cl)c4)cc32)c(C)c1C(=O)N1CCN(C)CC1
5. CN1CCN(c2ccc(OC(F)(F)F)c(Nc3ncc4c(n3)-c3c(c(C(N)=O)nn3CCO)CC4)c2)CC1 [ONVANSERTIB]

Marked response:
1: 17; 2: 9; 3: 13; 4: 14; 5: 20

====

- System: Fibroblast
- assay-protocol: Multiplex assay against human fibroblast
- Assay type: toxicity, cell-based
- study-conditions: 12 h, 10 µM, compound concentration 10 uM, replicate 2
Would you kindly list Population Mitotic Cells (%) for each of these compounds?
Numbers only, in %.

INSERT INTO assay_data (compound, measured_endpoint, unit_info, measured_number) VALUES
  ('CN(C)C(=O)/C(C#N)=C/c1ccc(-c2nc3cnc4[nH]ccc4c3n2C2CCCCC2)o1', 'Population Mitotic Cells (%)', '%', 81),
  ('Cc1sc2c(c1C)C(c1ccc(Cl)cc1)=N[C@@H](CC(=O)OC(C)(C)C)c1nnc(C)n1-2', 'Population Mitotic Cells (%)', '%', 33),
  ('CN(C)C(=O)N[C@H]1CC[C@H](CCN2CCN(c3cccc(Cl)c3Cl)CC2)CC1.Cl [CARIPRAZINE HYDROCHLORIDE]', 'Population Mitotic Cells (%)', '%', 63),
  ('C=CC(=O)Nc1cc2c(Nc3ccc(F)c(Cl)c3)ncnc2cc1OCCCN1CCOCC1.Cl.Cl [CANERTINIB DIHYDROCHLORIDE]', 'Population Mitotic Cells (%)', '%', 42),
  ('CC(C)(O)CNc1ncc(-c2ccnc(Nc3ccnc(Cl)c3)n2)c(CC2CC2)n1', 'Population Mitotic Cells (%)', '%', 84),
  ('CN(C)CC#Cc1ccc(OCCCc2sc(N3CCc4cccc(C(=O)Nc5nc6ccccc6s5)c4C3)nc2C(=O)O)c(F)c1', 'Population Mitotic Cells (%)', '%', 13);

Parameters: items (list). Returns: Population Mitotic Cells (%) for each item.
1. CC[C@H](C)C(=O)O[C@H]1C[C@@H](C)C=C2C=C[C@H](C)[C@H](CC[C@@H]3C[C@@H](O)CC(=O)O3)[C@H]21
2. O=C1NCN(c2ccccc2)C12CCN(CCCOc1ccc(F)cc1)CC2 [SPIRAMIDE]
3. CCN(CC)CCCCNc1ncc2cc(-c3cc(OC)cc(OC)c3)c(NC(=O)NC(C)(C)C)nc2n1
4. COc1cc(-n2cnc3cc(-c4ccc(Cl)cc4)sc3c2=O)ccc1OCCN1CCCC1
5. Cc1nc(Nc2n[nH]c3c2CN(C(=O)N[C@H](CN(C)C)c2ccccc2)C3(C)C)c2sccc2n1

Marked response:
[0, 50, 33, 73, 60]

Parameters: items (list). Returns: Population Mitotic Cells (%) for each item.
1. C=CC(=O)Nc1ccc2ncnc(Nc3ccc(OCc4cccc(F)c4)c(Cl)c3)c2c1.Cc1ccc(S(=O)(=O)O)cc1
2. CN1CCCC(n2nc(Cc3ccc(Cl)cc3)c3ccccc3c2=O)CC1.Cl (stereo not given) [AZELASTINE HYDROCHLORIDE]
3. COc1cccc([C@@H](C)NCCCc2ccccc2Cl)c1.Cl [TECALCET HYDROCHLORIDE]

Marked response:
1. 25
2. 42
3. 58

Entry under test: CN1CCN(CCOc2cc(OC3CCOCC3)c3c(Nc4c(Cl)ccc5c4OCO5)ncnc3c2)CC1 . Its Population Mitotic Cells (%) was 25
